Assay: soluble on expression in E. coli; label from the status in PepcDB or PDB records
METRIC: soluble on expression in E. coli

Study these solved cases before continuing.
{"columns": ["CHAIN", "METRIC", "DATA VALUE"],
 "data": [
  ["MGSDKIHHHHHHMGKLSLAAKITHVPSMYLSELPGRHHGCRAEAIRGHQAIGERCRALGVDTIVVADTHWLVNAGYHVNCNGHFAGVYTSNELPHFIRDMRYEYPGNPALGHLIAASANERGIGTRAHEIDSLELEYGTLVPMRYMNADQRFKVVSIAGWCMWHALDESRRFGEALRHAIDASDANVAFLASGSLSHRFNDNGSPEEAIHMISREFYRQVDLRVVELWKQGDFATFCKMLPEYNAHCHGEGGMHDTAMLLGLLGWDRYDKPVEIVTDYFASSGTGQINAIFPLP", "soluble on expression in E. coli", "not soluble"],
  ["MKISIRHRYIAKIPALEVTTEEQKNEALPLIVYYHGWQSAKELSLTQARKLAHEGFRVILPDAMNHGERKTEPISTIPSITFWSSIQYNLIEFPVIIHHFHKLGLIKENWIGVGGVSMGGITTSALMTQHPEIQAAACLMGTPYPARYIQRVIQRAKEFAIFVPKDLPLLLSWVHQYDLSQTPERLQERPMLFWHGTEDEKIPYEDMADFEQLVSGKTYARNTQFITEIGERHLVKGETMDLVVDFFKEASKTLEK", "soluble on expression in E. coli", "not soluble"],
  ["SSATPIVQFQGESNCLKCFRYRLNDKHRHLFDLISSTWHWASPKAPHKHAIVTVTYHSEEQRQQFLNVVKIPPTIRHKLGFMSMHLL", "soluble on expression in E. coli", "soluble"],
  ["MSPVHWPIHPKEYKWTVKPSPGPHAIENSLPLMIIVRDILKVADNAREARKIINSGEVLVDGRPRKNYKFPVGFMDVVSIPRTGDVYRVLPDERGRLVLHPIDEENAGFKLCKIVNKTTIKGGRTQLNLHDGRNYLSDDEFRVGDVVKLSIPEQEILERIPFEKDSLGLVTGGRHTGEIGKIKKINITRSSMPNTAVIETGAGKTFLTLKDYVFVIGKDESVISLPGGKLEHHHHHH", "soluble on expression in E. coli", "not soluble"],
  ["MAEVLMYGLSTCPHCKRTLEFLKREGVDFEVIWIDKLEGEERKKVIEKVHSISGSYSVPVVVKGDKHVLGYNEEKLKELIRG", "soluble on expression in E. coli", "soluble"],
  ["TDAPANQGFIIGVTGCPAGVAHTYLAAEALEKGAAAMGYEIKVETNGSIGVKNSPTAEEIERADAIIVACDKQVDMNRFAGKRVVKTNVKAPIRDAQGLINEALNAPTY", "soluble on expression in E. coli", "not soluble"],
  ["ARPKGIRIGYLPQVMRLQDGHTVYEEVEQAFNDIRQIEEEIRRLSDEMAGRTDYESDDYIRLIEHYTNMSETLSLMQQGNYHAAIEQTLIGLGFGREDFHRPTADFSGGWRMRIELAKLLLQRPEVLLLDEPTNHLDIESIGWLEQFIATNAGAVILVSHDRAFIDNTTTRTIEIELGHIYDYKTNYSHYVELREERLRQQMRAYENQQKMIRDTEDFIERFRYKATKSVQVQSRIKQLEKVERVEIDERDRSAFHFRFIPAQPSGSYP", "soluble on expression in E. coli", "not soluble"],
  ["MGSDKIHHHHHHMLNEIITIYAITDDLLKAIGHDDDIRRDMIDAEIITTALVAAMFFNGNHSKACAYMKDHKLIPNMLEKSRFNLRLHNLSMLLNDLFHQIGMIIKEISDSTEYLLDSFPVTICDNIRIFQVHLIQSEEYRGYIASKKRYFYGVRVQLISTKSGIPVEFAFLPGSANDVRGLNALPFNLPPGSEVYADAAYTDYTVEDDMAQSSQISLKVMRKKNSKRQDQPWNQYVKQYTRHYIETVFSCITCIFPKSIHAVTYEGFLLKLQAFIFAFTLKSAFM", "soluble on expression in E. coli", "not soluble"]
]}

Go through the list and state soluble on expression in E. coli for each entry.
1. GSKAPPTFKVSLMDQSVREGQDVIMSIRVQGEPKPVVSWLRNRQPVRPDQRRFAEEAEGGLCRLRILAAERGDAGFYTCKAVNEYGARQCEARLEVRGE
2. NSSGVNRVVGNNLDDLALPKLAKDQTNPMTMEELTTRFLRSDSATFDGTVVEVQGFASAAADGTWRLSRYKIYCCAADAMAYTATLETSTSMSSDQWYRVRGVVRVSSAHNPQFPMIEVHNLEAIDTPTEPYL
3. MARSRGSSRPISRSRPTQTRSASTMAAPVHPQQQQQPNAYSHPPAAGAQTRQPGMFAQMASTAAGVAVGSTIGHTLGAGITGMFSGSGSDSAPVEQQQQNMANTSGQTQTDQQLGRTCEIDARNFTRCLDENNGNFQICDYYLQQLKACQEAARQY

Given back:
1: soluble; 2: not soluble; 3: soluble

Would you mind giving soluble on expression in E. coli for every sequence in the list below?
1. MGSDKIHHHHHHMATLKRIWLALNPQEAAAWQALLTTAGLAADRQVDYTVGIFEGETLLATGSLSGNIIKEVAVTPATQHENLLAQVIQALLDRLDDDGVTHSFVYTKPTTVKFFLSLGFKQLAATDAVVLLERGYPNLTDYVASLEKQRRPEKPAAAIVMNANPITRGHAYLIETAAKVNPVVYVFVLSAERSLFTADERLALVRKVAARWPNVVVLPTNDYMVSNTTFPSYFLKERADADVAAVQARLDAALFKQAIAPVLGITRRYVGEEPLSPVTAIYNRELAATFGSAIELIVVPRLMIDGDVVSATRVRAAMAQQDWKTVQQLVYPEVYQEIKERSTHGN
2. MSDTPSTSSVFLPTWPTRRTDANLYPNGSTKSDELVLHDYGLEEIPMRYHIEQPEEDYDPQNVKKLDLTHNSFVILRGLTTFNNVSVLDVSFNSLSALPEDIGTLSSLTTLIARNNLLEHLPKGLQLLENLEHLYLSGNRLEYVPPVILTMRKLKTLHLGGNYIDSCPSNISVLTLLRVLYLGGNRLREIPASIGCLDELENLGLCDNILETIPSTLGDLHYLETLSLHNNRLRTLPTDILNLRRLQQLSLRNNPLVHSFVHNMDLAPPSLKELSGRTVRQNYHKVPNLDEILPSDLVAYLGSACQCVNPECQGVYFDARVEHIKFVDFCGKYRVPLMQFLCSPRCSAGVPSVDYDTSSESEEEIEPIMRRVLLG

Given back:
not soluble
not soluble
